system: biotinyl-Trp-oxazolone; test: self-aminoacylation, catalytic enhancement (BWO) (fold over background); higher = more active; k-Seq, kA / k0A0; sequences stand for … in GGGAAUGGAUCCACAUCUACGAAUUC…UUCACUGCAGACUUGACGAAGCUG
Fewer inactive variants are shown than the library holds.
quantity-measured: self-aminoacylation
One number for each entry.

For each listed entry, give its self-aminoacylation.
1. AUCCACCUAUGUCAUCGGGUG [Fam2.2 aminoacylation ribozyme variant]
2. CUACUUCAUACAAUCGGUUUG [Fam1A.1 aminoacylation ribozyme variant]
3. CCACAAUUCAAGCAGUCGGUC [Fam1B.1 aminoacylation ribozyme variant]

1. 5.8
2. 0.425
3. 0.925

For each listed entry, give its self-aminoacylation.
1. AAGUUUGCCAAUAGUCGCAUG [Fam3.1 aminoacylation ribozyme variant]
2. CCAUACUUCAAGCAAUCGGUA [Fam1B.1 aminoacylation ribozyme variant]

1: 1.56; 2: 1.1

For each listed entry, give its self-aminoacylation.
1. CUACUGAAAACAAUCGGUCUG [Fam1A.1 aminoacylation ribozyme variant]
2. CCACACUUCAAGCAGUCGGUG [Fam1B.1 aminoacylation ribozyme variant]
3. ACUCACCUAGGUCAUCGGGUA [Fam2.2 aminoacylation ribozyme variant]
4. AAGUUAGCUAAUAGUCGCGAG [Fam3.1 aminoacylation ribozyme variant]
5. CAGUUUGCUAACAGUCGCAAG [Fam3.1 aminoacylation ribozyme variant]
6. CCUCACUUCAAACAAUCGGUC [Fam1B.1 aminoacylation ribozyme variant]

1: 0.78; 2: 2.1; 3: 14.9; 4: 2.24; 5: 1.32; 6: 37.3

For each listed entry, give its self-aminoacylation.
1. AUUAACCUGGUCAUCGAGUUA [Fam2.1 aminoacylation ribozyme variant]
2. CUACUUCAAACAAACAGUCUG [Fam1A.1 aminoacylation ribozyme variant]
3. UUUACCCUUGUCAUCGAGUGA [Fam2.1 aminoacylation ribozyme variant]
4. CCACAAUUCGAGCAAUCGGUC [Fam1B.1 aminoacylation ribozyme variant]
5. CGACAUCAAACAAUCGGUCUG [Fam1A.1 aminoacylation ribozyme variant]
6. CCUCACCUCAAGCAAUCGGUC [Fam1B.1 aminoacylation ribozyme variant]
7. AUGCACCUAGGUCAUCGGGCG [Fam2.2 aminoacylation ribozyme variant]

1. 0.836
2. 0.534
3. 7.94
4. 1.08
5. 2.71
6. 2.12
7. 2.53

----------
Kindly state self-aminoacylation for each of the entries shown.
tested on: biotinyl-Trp-oxazolone; test: self-aminoacylation, catalytic enhancement (BWO) (fold over background); higher = more active; k-Seq, kA / k0A0; sequences stand for … in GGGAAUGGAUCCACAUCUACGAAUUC…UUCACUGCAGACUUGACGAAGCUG
This sample holds only a part of the variants without activity.
Answers are plain numbers.

Given the entry AUUACACUGGUCAUCGAGCGA [Fam2.1 aminoacylation ribozyme variant] , report its measured self-aminoacylation.
1.8

For each listed entry, give its self-aminoacylation.
1. AAGUUUCCUAAUAUUCGCAAG [Fam3.1 aminoacylation ribozyme variant]
2. CGACUUCAAUCAAUCGGUCUG [Fam1A.1 aminoacylation ribozyme variant]
3. CCACACUAAAAGCAAUCGGUC [Fam1B.1 aminoacylation ribozyme variant]
4. CUACUUCUAACAAGCGGUCUG [Fam1A.1 aminoacylation ribozyme variant]

1. 0.649
2. 24.3
3. 0.746
4. 0.64

----------
test system: biotinyl-Ile-oxazolone; assay: self-aminoacylation, catalytic enhancement (BIO) (fold over background); higher = more active; k-Seq, kA / k0A0; sequences stand for … in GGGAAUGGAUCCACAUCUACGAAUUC…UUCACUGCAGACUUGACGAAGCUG
Fewer inactive variants are shown than the library holds.
self-aminoacylation vs 0.9: at or above is true, below is false.

Worked examples, 5 sequences total:
Does the reported self-aminoacylation for CCACACGUCAAGCAAUCGAUC [Fam1B.1 aminoacylation ribozyme variant] fall at or above the 0.9 mark?
false

Does the reported self-aminoacylation for CCACGCUUUAAGCAAUCGGUC [Fam1B.1 aminoacylation ribozyme variant] fall at or above the 0.9 mark?
false

Does the reported self-aminoacylation for AUCCACCUAGGGCAUCGGGUG [Fam2.2 aminoacylation ribozyme variant] fall at or above the 0.9 mark?
true

Does the reported self-aminoacylation for AAGAUUGCUAAUAGUCGAAAG [Fam3.1 aminoacylation ribozyme variant] fall at or above the 0.9 mark?
true

Does the reported self-aminoacylation for AUUCACCGAUGUCAUCGGGUG [Fam2.2 aminoacylation ribozyme variant] fall at or above the 0.9 mark?
true

More entries:
Does the reported self-aminoacylation for AAGUUGGCUAAUAGUCGCACG [Fam3.1 aminoacylation ribozyme variant] fall at or above the 0.9 mark?
true

Does the reported self-aminoacylation for AUUCACCUAGGUGAUCGGGUU [Fam2.2 aminoacylation ribozyme variant] fall at or above the 0.9 mark?
true

Does the reported self-aminoacylation for CUACUUCAUACAAUCGGUGUG [Fam1A.1 aminoacylation ribozyme variant] fall at or above the 0.9 mark?
false

Does the reported self-aminoacylation for CCACACUUCAAGCCGUCGGUC [Fam1B.1 aminoacylation ribozyme variant] fall at or above the 0.9 mark?
true

Does the reported self-aminoacylation for CCACACUUCAGUCAAUCGGUC [Fam1B.1 aminoacylation ribozyme variant] fall at or above the 0.9 mark?
true

Does the reported self-aminoacylation for AUUCAACUAGGUCAUCCGGUG [Fam2.2 aminoacylation ribozyme variant] fall at or above the 0.9 mark?
true

----------
system: biotinyl-Phe-oxazolone; experiment: self-aminoacylation, catalytic enhancement (BFO) (fold over background); higher = more active; k-Seq, kA / k0A0; sequences stand for … in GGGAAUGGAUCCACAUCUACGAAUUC…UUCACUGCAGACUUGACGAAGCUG
Fewer inactive variants are shown than the library holds.
Kindly state self-aminoacylation for each of the entries shown.
Numbers only.

Given the entry AUCCACCUAUGUCAUCGGGUG [Fam2.2 aminoacylation ribozyme variant] , report its measured self-aminoacylation.
49.9

Given the entry CUAGCUCAAACAAUCGGUCUG [Fam1A.1 aminoacylation ribozyme variant] , report its measured self-aminoacylation.
4.58

Given the entry AUUAACCUGGUCAUCGAGUUA [Fam2.1 aminoacylation ribozyme variant] , report its measured self-aminoacylation.
0.827

Given the entry CUACUUCAAUCAAUCGGACUG [Fam1A.1 aminoacylation ribozyme variant] , report its measured self-aminoacylation.
8.24

For each listed entry, give its self-aminoacylation.
1. CCACACUUCACGCAAUCGGCC [Fam1B.1 aminoacylation ribozyme variant]
2. AUUCACCUAGGUCAUGGAGUG [Fam2.2 aminoacylation ribozyme variant]
3. CUACUUCAAGCAAUCGGUCUC [Fam1A.1 aminoacylation ribozyme variant]

[13.9, 7.91, 11.4]

For each listed entry, give its self-aminoacylation.
1. AUUACCCUGCUCAUCGACUGA [Fam2.1 aminoacylation ribozyme variant]
2. AUUACCCUGUUCAUCAAGUGA [Fam2.1 aminoacylation ribozyme variant]

[0.34, 2.65]

----------
Kindly state self-aminoacylation for each of the entries shown.
system: biotinyl-Trp-oxazolone; test: self-aminoacylation, catalytic enhancement (BWO) (fold over background); higher = more active; k-Seq, kA / k0A0; sequences stand for … in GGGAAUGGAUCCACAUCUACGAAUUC…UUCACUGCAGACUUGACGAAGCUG
Fewer inactive variants are shown than the library holds.
Answers are plain numbers.

Notebook entry, biotinyl-Trp-oxazolone assay: self-aminoacylation of CUUCUUCAAACAACCGGUCUG [Fam1A.1 aminoacylation ribozyme variant] = ?
0.846

Notebook entry, biotinyl-Trp-oxazolone assay: self-aminoacylation of UUUACCGUGGUCAUCGAGUGA [Fam2.1 aminoacylation ribozyme variant] = ?
7.07

For each listed entry, give its self-aminoacylation.
1. AUUAACCUACGUCAUCGGGUG [Fam2.2 aminoacylation ribozyme variant]
2. AUUACCCUGAUAAUCGAGUGA [Fam2.1 aminoacylation ribozyme variant]
3. CCACACUUCAAGCAAUCGGGA [Fam1B.1 aminoacylation ribozyme variant]
4. AGUACCUUGGUCAUCGAGUGA [Fam2.1 aminoacylation ribozyme variant]
5. CCACACUUCAACCAAUCGGGC [Fam1B.1 aminoacylation ribozyme variant]
6. AGUACCCUGGUCAUCGAGUGG [Fam2.1 aminoacylation ribozyme variant]

1: 5.8; 2: 11.1; 3: 1.87; 4: 8.17; 5: 2.09; 6: 4.19

For each listed entry, give its self-aminoacylation.
1. AUUACCCUGGCCACCGAGUGA [Fam2.1 aminoacylation ribozyme variant]
2. AUUCACCUAGGUCAUGGAGUG [Fam2.2 aminoacylation ribozyme variant]
3. CAGUUUGCUAAUAGACGCAAG [Fam3.1 aminoacylation ribozyme variant]

3.89
3.68
1.61

For each listed entry, give its self-aminoacylation.
1. AACUUUGCUAAUAGUCCCAAG [Fam3.1 aminoacylation ribozyme variant]
2. AUCCACCUAGGUCAUCGGAUG [Fam2.2 aminoacylation ribozyme variant]
3. AUUCACCUAGGUCAGCGGGUG [Fam2.2 aminoacylation ribozyme variant]
4. CUACUGCAAACAAUCGGCCUG [Fam1A.1 aminoacylation ribozyme variant]
5. CCACUCUUCAAGCAAUCAGUC [Fam1B.1 aminoacylation ribozyme variant]
6. AGUCACCUGGGUCAUCGGGUG [Fam2.2 aminoacylation ribozyme variant]

1: 1.51; 2: 1.04; 3: 4.21; 4: 2.81; 5: 2.76; 6: 5.64

For each listed entry, give its self-aminoacylation.
1. AUUCACCUAGGUCGUCGGCUG [Fam2.2 aminoacylation ribozyme variant]
2. AUUCACAUUGGUCAUCGGGUG [Fam2.2 aminoacylation ribozyme variant]
3. CCACACUUUAAGCAAUCGGGC [Fam1B.1 aminoacylation ribozyme variant]
4. GCUCACUUCAAGCAAUCGGUC [Fam1B.1 aminoacylation ribozyme variant]
5. ACUCACCUAGGUCGUCGGGUG [Fam2.2 aminoacylation ribozyme variant]
6. AUUCACCUGGGUCAUCGGGUG [Fam2.2 aminoacylation ribozyme variant]
7. AGUACCGUGGUCAUCGAGUGA [Fam2.1 aminoacylation ribozyme variant]
8. AUUACCCCGGUCAUCGGGUGA [Fam2.1 aminoacylation ribozyme variant]

1.63
8.88
1.01
10.9
3.42
18.2
5.99
12.7
